# System: oat, wild
# method_description: Test C preemergence
# Assay type: in vivo, Avena fatua
# test_conditions: Preemergence, 500 g ai/ha; visual rating after 10 days, 0 to 100 scale (0 no effect, 100 complete control)
property_measured: Plant response rating, Oat, Wild

COC[C@H]1CN(C(=O)c2cc(-n3cnc(C4CCC4)n3)ccc2OC)c2cccc(Cl)c2O1    30
CCc1ncn(-c2ccc(OC)c(C(=O)N3C[C@H](COC)Oc4c(Cl)cccc43)c2)n1    80
Cc1ccc(-n2cnc(C[S+](C)[O-])n2)cc1C(=O)N1C[C@H](C)Oc2c(Cl)cccc21 (stereo partly shown)    90

Reported Plant response rating, Oat, Wild of "COC[C@H]1CN(C(=O)c2cc(-n3cncn3)ccc2C)c2cccc(Cl)c2O1" : 70

Reported Plant response rating, Oat, Wild of CC(C)c1ncn(-c2ccc([S+]([O-])C(F)(F)F)c(C(=O)N3C[C@H](C)Oc4c(Cl)cccc43)c2)n1 (stereo partly shown) : 0

Reported Plant response rating, Oat, Wild of "Cc1cc(-n2cnc(C(C)C)n2)cc(C(=O)N2C[C@H](C)Oc3c(Cl)cccc32)c1Cl" : 70

Reported Plant response rating, Oat, Wild of "Cc1ccc(-n2cnc(C3(C(F)(F)F)CC3)n2)cc1C(=O)N1C[C@H](C)Oc2c(Cl)cccc21" : 50
